Reference for the values: the RNAGym collection of RNA variant scans (doi:10.7554/elife.80360)

B1: HDV Ribozyme (parent)
chain: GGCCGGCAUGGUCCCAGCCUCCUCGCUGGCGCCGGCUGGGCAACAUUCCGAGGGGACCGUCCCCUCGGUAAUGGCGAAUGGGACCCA

Variants of: B1
ASSAY METHOD TEXT: self-cleavage, relative activity (ratio to wild type); higher = more cleavage; co-transcriptional
MEASUREMENT NAME: self-cleavage
// response body must contain only the number

Briefly, self-cleavage measured for GGCCGGCAUGGUCCCAGCCUCCUCGCUGGCGCCGGCUGAGAAACAUUCCGAGGGGACCGUCCCCUCGGUAAUGGCGAAUGGGACCCA [G39A C41A] : 0.471

Briefly, self-cleavage measured for GUCCGGCAUGGUCCCAGCCUCCUCGCUGGCGCCGGCUGGGCAACAUUCCGAGGGGACCGUCCCCUCGGUAAUGGCGAAUGGGACCCC [G2U A87C] : 0.0661

Briefly, self-cleavage measured for GGCCGGCAUGGUCCCAGACUCCUCGCUGGCGCCGGCUGGGCAACAUUCCGAGGGGACGGUCCCCUCGGUAAUGGCGAAUGGGACCCA [C18A C58G] : 0

Briefly, self-cleavage measured for GGCCGGCAUGGUCCCAGCCUCCUCGCUGGCGCCGGCUGGGCAACAUUCCGAGGGGAACAUCCCCUCGGUAAUGGCGAAUGGGACCCA [C57A G59A] : 1.04

Briefly, self-cleavage measured for GGCCUGCAUGGUCCCAGCCUCCUCGUUGGCGCCGGCUGGGCAACAUUCCGAGGGGACCGUCCCCUCGGUAAUGGCGAAUGGGACCCA [G5U C26U] : 0.864

Briefly, self-cleavage measured for UGCCGGCAUGGUCCCAGCCUCCUCGCUGGCGCCGGCUGGGCAGCAUUCCGAGGGGACCGUCCCCUCGGUAAUGGCGAAUGGGACCCA [G1U A43G] : 0.147

Briefly, self-cleavage measured for GGCCGGUAUGGUCCCAGCCUCCUCGCUGGCGCCGGCUGGGCAACAUACCGAGGGGACCGUCCCCUCGGUAAUGGCGAAUGGGACCCA [C7U U47A] : 0.554

Briefly, self-cleavage measured for GGCCGGAAUGGUCCCAGCCUCCUUGCUGGCGCCGGCUGGGCAACAUUCCGAGGGGACCGUCCCCUCGGUAAUGGCGAAUGGGACCCA [C7A C24U] : 0.306

***
Briefly, self-cleavage measured for GGCCGGCAUGGUCCCAGCCUCCUCGCUGGCGCCGGGUGGGCUACAUUCCGAGGGGACCGUCCCCUCGGUAAUGGCGAAUGGGACCCA [C36G A42U] : 0.113

Briefly, self-cleavage measured for GGCCUGCAUGGUCCCAGCCUCCUCGCUGGCACCGGCUGGGCAACAUUCCGAGGGGACCGUCCCCUCGGUAAUGGCGAAUGGGACCCA [G5U G31A] : 0.135

Briefly, self-cleavage measured for GGCCGGCAUGGUCCCAGCCUCAUCGCUGGCGCCGGCUGGGCAACAUUCCGAGGGGACCGUCCCAUCGGUAAUGGCGAAUGGGACCCA [C22A C64A] : 0.107
